Entries annotated with measured AUC(0-inf)
# assay_text: AUC (0 to infinity) in Sprague-Dawley rat at 10 mg/kg, po
# Type: ADME, organism-based, Plasma
# Design: time infinity, dose 10 mg/kg, route oral
# condition_details: Sprague-Dawley, plasma

smiles_record	AUC(0-inf) [ng·h/mL]
O=C1O[C@@H](Cn2ccnn2)CN1c1ccc(N2CCN(Cc3ccoc3)CC2)c(F)c1	16400
Nc1ccc(CN2CCN(c3ccc(N4C[C@H](Cn5ccnn5)OC4=O)cc3F)CC2)cc1	3100
O=C1O[C@@H](Cn2ccnn2)CN1c1ccc(N2CCN(Cc3cccc([N+](=O)[O-])c3)CC2)c(F)c1	16100

====

# Tested on: Staphylococcus aureus
# assay_text: Antimicrobial activity against Staphylococcus aureus ATCC 29213 after 16 to 18 hrs by agar dilution method
# Assay type: functional

smiles_record	MIC [µg/mL]
Cc1ccc(CN2CCN(c3ccc(N4C[C@H](Cn5ccnn5)OC4=O)cc3F)CC2)o1	0.125
Nc1ccc(CN2CCN(c3ccc(N4C[C@H](Cn5ccnn5)OC4=O)cc3F)CC2)cc1	0.125
O=C1O[C@@H](Cn2ccnn2)CN1c1ccc(N2CCN(Cc3ccccn3)CC2)c(F)c1	0.125
O=C1O[C@@H](Cn2ccnn2)CN1c1ccc(N2CCN(Cc3ccccc3[N+](=O)[O-])CC2)c(F)c1	0.125
Nc1cccc(CN2CCN(c3ccc(N4C[C@H](Cn5ccnn5)OC4=O)cc3F)CC2)c1	0.25
O=C1O[C@@H](Cn2ccnn2)CN1c1ccc(N2CCN(Cc3cccs3)CC2)c(F)c1	0.06
O=C1O[C@@H](Cn2ccnn2)CN1c1ccc(N2CCN(Cc3ccsc3)CC2)c(F)c1	0.06

====

# Test system: Staphylococcus aureus
# assay_text: Antimicrobial activity against methicillin-susceptible Staphylococcus aureus after 16 to 18 hrs by agar dilution method
# Assay type: functional

molecule	target_of_assay	unit_name	MIC
O=C1O[C@@H](Cn2ccnn2)CN1c1ccc(N2CCN(Cc3ccco3)CC2)c(F)c1	Staphylococcus aureus	mg/L	0.06
O=C1O[C@@H](Cn2ccnn2)CN1c1ccc(N2CCN(Cc3ccc([N+](=O)[O-])cc3)CC2)c(F)c1	Staphylococcus aureus	mg/L	0.5
O=C1O[C@@H](Cn2ccnn2)CN1c1ccc(N2CCN(Cc3ccc(Br)s3)CC2)c(F)c1	Staphylococcus aureus	mg/L	0.06
CC(=O)NC[C@H]1CN(c2ccc(N3CCOCC3)c(F)c2)C(=O)O1 [LINEZOLID]	Staphylococcus aureus	mg/L	0.5
CN[C@H](CC(C)C)C(=O)N[C@H]1C(=O)N[C@@H](CC(N)=O)C(=O)N[C@H]2C(=O)N[C@H]3C(=O)N[C@H](C(=O)N[C@H](C(=O)O)c4cc(O)cc(O)c4-c4cc3ccc4O)[C@H](O)c3ccc(c(Cl)c3)Oc3cc2cc(c3O[C@@H]2O[C@H](CO)[C@@H](O)[C@H](O)[C@H]2O[C@H]2C[C@](C)(N)[C@H](O)[C@H](C)O2)Oc2ccc(cc2Cl)[C@H]1O [VANCOMYCIN]	Staphylococcus aureus	mg/L	0.125
O=C1O[C@@H](Cn2ccnn2)CN1c1ccc(N2CCN(Cc3ccccn3)CC2)c(F)c1	Staphylococcus aureus	mg/L	0.125

====

# assay_text: Elimination half life in Sprague-Dawley rat at 10 mg/kg, iv
# Format: ADME, organism-based
# Design: dose 10 mg/kg, route intravenous
# condition_details: in vivo, read-out: beta t1/2 (converted)
Entries annotated with measured half-life

smiles_record	unit_name	half-life
Nc1ccc(CN2CCN(c3ccc(N4C[C@H](Cn5ccnn5)OC4=O)cc3F)CC2)cc1	h	3.52
O=C1O[C@@H](Cn2ccnn2)CN1c1ccc(N2CCN(Cc3cccc([N+](=O)[O-])c3)CC2)c(F)c1	h	2.95
O=C1O[C@@H](Cn2ccnn2)CN1c1ccc(N2CCN(Cc3ccc([N+](=O)[O-])o3)CC2)c(F)c1	h	1.18
O=C1O[C@@H](Cn2ccnn2)CN1c1ccc(N2CCN(Cc3ccoc3)CC2)c(F)c1	h	2.95
